# System: T1, DGI-2 polypeptide (UniProt Q15004 1-111, limits assumed)
# T1 construct: Soluble recombinant protein coated at 500 ng/well; vector tag of pIVEX2.3-MCS not described for this construct; also called KIAA0101
# T1 sequence (looked up): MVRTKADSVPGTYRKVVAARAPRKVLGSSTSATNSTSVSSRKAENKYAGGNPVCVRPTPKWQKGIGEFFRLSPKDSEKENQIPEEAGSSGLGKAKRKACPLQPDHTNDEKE
# Test Name: phage ELISA
Classify: t when DGI-2/LDH is strictly less than 6 ratio; f when DGI-2/LDH is not.

Some solved entries appear below for comparison.
RTLFINGGCCGKGSGGGRPLAAAGAPVPYPDPLEPRP [DGI-2-20F-PP-G1]: t
GGDLGEQGVQLCPDVVRGGSLAAAGAPVPYPDPLEPRP [DGI-2-20F-PP-A7]: t
DGKHLTKWSGRGWWSAWVGGAAAGAPVPYPDPLEPRP [DGI-2-20R-3-B12]: t
LWRRWSEGQLLGDGELRGDGAAAGAPVPYPDPLEPRP [DGI-2-20R-3-B52]: f
LSLEGGWMWDTKGGDGGSAQAAAGAPVPYPDPLEPRP [DGI-2-20R-4-F93]: f

Now examine the next entry.
Below 6 ratio on DGI-2/LDH? Entry VRAVYSRDAYNEVGRWMRVGIAAAGAPVPYPDPLEPRP [DGI-2-20F-PP-D9]
t

Source listed as patent US7056679.
